test-details: Viability qHTS for spleen associated tyrosine kinase inhibitor (SYKi) drug resistant MV4-11 cells (AID 1963824); further: nearly all actives have a fitted effect of over 35% in size
measurement-context: SYKi-resistant MV4-11 viability, CellTiter-Glo, 72 h; series mostly up to 45 µM
Results filed as inconclusive are left out. The source made the active and inactive calls. The call rests on the fitted dose curve; in most records, active means well fitted cell-killing curve with a large enough effect; inconclusive means small, poorly fitted or top-dose-only effect, or effect the other way; inactive means no such curve, though single readings can be large or run the other way.
Tick one outcome: YES = active, NO = inactive

Recorded test call requested for CN(C)c1nc(Cc2ccc(NC(=O)c3ccc4ccccc4c3)cc2)nc(Cl)c1CC(=O)O
NO

Recorded test call requested for CC(=O)O[C@@H]1CC[C@@]2(C)C(CC[C@]3(C)C2[C@H](O)C=C2[C@H]4[C@@H](C)[C@H](C)CC[C@]4(C)CC[C@]23C)[C@@]1(C)C(=O)O (some centres not stated)
YES

Recorded test call requested for CC(C)(O)c1ccc2c(c1)C(=O)CC1[C@](C)(CO)CCC[C@]21C (some centres not stated)
NO

Recorded test call requested for CC(C)(C)n1nc(Cc2cccc3ccccc23)c2c(N)ncnc21
YES

Recorded test call requested for OCc1ccccc1O
NO

Recorded test call requested for CC1=CC(=O)CC(C)(C)C1CCC(C)O[C@@H]1O[C@H](CO)[C@@H](O)[C@H](O)[C@H]1O (some centres not stated)
NO

Recorded test call requested for Cc1cccc(Nc2nc(N[C@@H]3CCCC[C@H]3N)ncc2C(N)=O)c1
YES

Recorded test call requested for Clc1ccc(COC(Cn2ccnc2)c2ccc(Cl)cc2Cl)c(Cl)c1 (configuration not stated)
YES

Recorded test call requested for COc1cc([C@@H](CC(=O)O)c2ccc(C)c(CN3C[C@@H](C)Oc4ccccc4S3(=O)=O)c2)cc2nnn(C)c12
YES

Recorded test call requested for CC(O)(C#Cc1ccc2c(c1)N(c1nc(N)ncc1Cl)CC2)c1nccs1 (configuration not stated)
YES

Recorded test call requested for Cn1c(=O)c2c(ncn2Cc2ccc(C(C)(C)C)cc2)n(C)c1=O
YES

Recorded test call requested for CCCOc1ccc2c(c1)CC[C@@H]1[C@@H]2CC[C@]2(C)C(OC)CC[C@@H]12 (some centres not stated)
NO

Recorded test call requested for CNc1ncc2cc(-c3cc(NC(=O)NCCC(C)(C)C)c(F)cc3C)c(C)nc2n1
YES

Recorded test call requested for O=C(O)CC(O)C(=O)O (configuration not stated)
NO

Recorded test call requested for CCOC(=O)N[C@@H]1CC[C@@H]2[C@@H](C1)C[C@H]1C(=O)O[C@H](C)[C@H]1[C@H]2/C=C/c1ccc(-c2cccc(F)c2)cn1
YES

Recorded test call requested for Cc1nc2ccc(CN(C)c3ccc(C(=O)N[C@@H](CCC(=O)O)C(=O)O)s3)cc2c(=O)[nH]1
YES

Recorded test call requested for CCOC(=O)[C@@](C)(N)Cc1ccc(O)c(O)c1
NO

###

test-details: Quantitative highthroughput screen to assess conditional lethalithy of NOMO1 cells grown in RPMI1640 with dialyzed fetal bovine serum (RPMI+ds) (AID 1963877); further: nearly all actives have a fitted effect of over 30% in size
measurement-context: NOMO1 in RPMI+dialyzed FBS viability, ATP luminescence, 48 h; series mostly up to 45.8 µM
Procedure: Assay Provider: Jason Cantor Ph.D. Department of Biochemistry University of Wisconsin-Madison, Madison, WI, USA Chemical screening studies have identified drug sensitivities across hundreds of cancer cell lines but most putative therapeutics fail to translate. […] Sets of conditional anticancer compounds spanned phases of clinical development and included non-oncology drugs were assessed. […] 6; Detection; Luminescence, Viewlux PerkinElmer. […]
Inconclusive results are not listed. Calls of active or inactive are those of the source. Calls come from the whole dose curve; as a rule, active = well fitted cell-killing curve with a large enough effect; inconclusive = small, poorly fitted or top-dose-only effect; inactive = flat fitted curve, though single readings scatter.
Tick one outcome: active, inactive

These solved cases illustrate the format of a correct answer.
line_notation=CC(C)[C@H](C(=O)Nc1ccc(C(=O)NO)cc1)c1ccccc1 category_label=active
line_notation=COc1ccccc1N1CCN(CCN(C(=O)C2CCCCC2)c2ccccn2)CC1 category_label=inactive

We now examine a further compound.
Recorded test call requested for S=P(N1CC1)(N1CC1)N1CC1
inactive
